target: cardiac troponin T (recombinant human) (human); assay: SPR, 37C
READOUT: Kd (nM)
Give bare numbers, in nM.

Which Kd value is on record for parental Fab (TnT M-7) (antibody, V domains shown) VH: EVQLQQSGPELVKPGASVKMSCKASGYTFTDYYMKWVKQSHGKSLEWIGDINPNNGETFYNQKFKDKATLTVDKSSSTAYMQLNSLTSEDSAVYYCATRVFDYWGQGTTLTVSS VL: DIVLTQSPASLAVSLGQRATISCKASQSVDYDGTSYMNWFQQKAGQPPKRLIYAASNLESGIPARFSGRGSGTDFALNIHPVEEEDAATYYCQQSNEDPYTFGGGTKLEIKR ?
0.58

Dear colleague, could you please provide Kd for the binders listed below?
1. Fab combination 8 (antibody, V domains shown) VH: EVQLQQSGPELVKPGASVKMSCKASGYTFTDYFMKWVKQSHGKSLEWIGDINPNNGETFYNQKFKDKATLTVDKSSSTAYMQLNSLTSEDSAVYYCATRYFDFWGQGTTLTVSS VL: DIVLTQSPASLAVSLGQRATISCKASQSVDYDGTSYMNWFQQKAGQPPKRLIYAASNLESGIPARFSGRGSGTDFALNIHPVEEEDAATYYCQQSNEDPYTFGGGTKLEIKR
2. Fab combination 11 (antibody, V domains shown) VH: EVQLQQSGPELVKPGASVKMSCKASGYTFTDYIMKWVKQSHGKSLEWIGDINPNNGETWYNQKFKDKATLTVDKSSSTAYMQLNSLTSEDSAVYYCATRYFDYWGQGTTLTVSS VL: DIVLTQSPASLAVSLGQRATISCKASQSVDYDGTSYMNWFQQKAGQPPKRLIYAASNLESGIPARFSGRGSGTDFALNIHPVEEEDAATYYCQQSNEDPYTFGGGTKLEIKR

0.2
1

All figures here come from patent US12275778.
